From: patent US20200071424A1

Kd by entry:
Target: T1, human [1-305]-mouse chimeric EL (human; mouse, UniProt Q9WVG5 306-500)
T1 construct: Heparin extract, captured or detected by an anti-C2-tag antibody; also called human-mouse chimeric EL
T1 sequence: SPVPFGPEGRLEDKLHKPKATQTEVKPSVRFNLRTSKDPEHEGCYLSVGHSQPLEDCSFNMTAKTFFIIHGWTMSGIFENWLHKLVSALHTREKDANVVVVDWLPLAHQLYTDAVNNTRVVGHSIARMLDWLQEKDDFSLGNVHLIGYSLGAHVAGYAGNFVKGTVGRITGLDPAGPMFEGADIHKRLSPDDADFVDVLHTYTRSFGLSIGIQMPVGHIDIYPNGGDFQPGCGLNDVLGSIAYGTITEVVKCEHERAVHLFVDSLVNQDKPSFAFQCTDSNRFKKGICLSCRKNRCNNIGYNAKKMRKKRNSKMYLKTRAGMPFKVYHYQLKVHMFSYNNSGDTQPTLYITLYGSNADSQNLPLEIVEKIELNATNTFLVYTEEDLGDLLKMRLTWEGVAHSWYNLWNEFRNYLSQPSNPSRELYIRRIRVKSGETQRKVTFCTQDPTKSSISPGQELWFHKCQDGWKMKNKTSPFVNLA
Experiment: Biacore; EL captured by anti-C2-tag Ab; bivalent fit
Procedure: The binding affinities of anti-EL antibodies were measured using Biacore. […] Then, anti-EL humanized antibodies were added and the binding affinities were calculated by bivalent fitting of BIAevaluation software.
Measured quantity: Kd (nM)

Binder	Result
h55A1-F4 (antibody, V domains shown, humanized) VH: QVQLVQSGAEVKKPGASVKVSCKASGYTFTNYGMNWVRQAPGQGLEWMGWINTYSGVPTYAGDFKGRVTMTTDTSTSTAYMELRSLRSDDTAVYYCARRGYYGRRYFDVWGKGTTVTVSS VL: EIVLTQSPGTLSLSPGERATLSCKASQSVDYDVDSYMHWYQQKPGQAPRLLIYAASNLASGIPDRFSGSGSGTDFTLTISRLEPEDFAVYYCQQTIEDPPTFGGGTKVEIK	0.22
h16B3-S5 (antibody, V domains shown, humanized) VH: EVQLVESGGGLVQPGGSLRLSCAASGFTFSGYTMSWVRQAPGKGLEWVSEISFARDRAFYPDTVKGRFTISRDNSKNTLYLQMNSLRAEDTAVYYCARLGGKNRDFWYFDLWGQGTTVTVSS VL: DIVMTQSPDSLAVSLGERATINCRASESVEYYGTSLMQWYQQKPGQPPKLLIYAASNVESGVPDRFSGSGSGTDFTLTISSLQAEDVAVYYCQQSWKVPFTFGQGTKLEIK	1
